Listed below: Kd values for each entry.
# target-of-assay: T1, GFP-9S library array, motif 4 ND N98Q;D124L (synthetic construct, N98Q;D124L)
# T1 chain: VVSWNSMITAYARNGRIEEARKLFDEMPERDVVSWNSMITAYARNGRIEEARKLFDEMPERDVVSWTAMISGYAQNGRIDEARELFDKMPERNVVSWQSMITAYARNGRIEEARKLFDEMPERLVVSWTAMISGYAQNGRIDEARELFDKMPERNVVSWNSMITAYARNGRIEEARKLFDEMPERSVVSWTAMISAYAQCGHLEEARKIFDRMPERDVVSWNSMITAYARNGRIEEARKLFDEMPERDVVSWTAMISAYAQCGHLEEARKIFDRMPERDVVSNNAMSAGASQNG
# assay-protocol: high-throughput RNA pulldown from lysate on Ni-NTA beads; HRP: 50 mM Tris pH 8, 150 mM NaCl, 1 mM beta-mercaptoethanol, 50 ug/ml BSA, 3 ug/ml yeast RNA, 0.5% heparin; ITC and FP: Tris pH 8, 200 mM KCl, 5% glycerol; MST: 50 mM Tris pH 8, 200 mM NaCl, 1 mM DTT, BSA, heparin, 0.05% Tween 20
# study-conditions: tags: N-terminal His-eGFP; label: 5' IRDye 800CW
Lab book: enter the figure in nM, no units written.

AUUAAACGUGA (ssRNA) [IR-rpoA-A]    155

Attention now shifts to the item below.
Indicate its recorded Kd; the binder in question is AUUAUACGUGA (ssRNA) [IR-rpoA-U]
261
